Data provenance is the supplement of paper PMC5998384.

# System: HeLa Kyoto;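 further: HeLa Kyoto cells synchronized by double thymidine or nocodazole block, proteins quantified by TMT10plex mass spectrometry, three independent biological replicates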
# MEASUREMENT NOTES: melting temperature (median over replicates), in situ; higher = more thermally stable
# MEASUREMENT SETUP: cell cycle stage: mitosis
MEASUREMENT KIND: melting temperature (°C)
Expressed in °C, but write only the number.

Problem: Please give the documented melting temperature of MFKNTFQSGFLSILYSIGSKPLQIWDKKVRNGHIKRITDNDIQSLVLEIEGTNVSTTYITCPADPKKTLGIKLPFLVMIIKNLKKYFTFEVQVLDDKNVRRRFRASNYQSTTRVKPFICTMPMRLDDGWNQIQFNLLDFTRRAYGTNYIETLRVQIHANCRIRRVYFSDRLYSEDELPAEFKLYLPVQNKAKQ [CFAP20]
Solution: 51

Problem: Please give the documented melting temperature of MDPAARVVRALWPGGCALAWRLGGRPQPLLPTQSRAGFAGAAGGPSPVAAARKGSPRLLGAAALALGGALGLYHTARWHLRAQDLHAERSAAQLSLSSRLQLTLYQYKTCPFCSKVRAFLDFHALPYQVVEVNPVRRAEIKFSSYRKVPILVAQEGESSQQLNDSSVIISALKTYLVSGQPLEEIITYYPAMKAVNEQGKEVTEFGNKYWLMLNEKEAQQVYGGKEARTEEMKWRQWADDWLVHLISPNVYRTPTEALASFDYIVREGKFGAVEGAVAKYMGAAAMYLISKRLKSRHRLQDNVREDLYEAADKWVAAVGKDRPFMGGQKPNLADLAVYGVLRVMEGLDAFDDLMQHTHIQPWYLRVERAITEASPAH [PTGES2]
Solution: 54.9

Problem: Please give the documented melting temperature of MPGVKLTTQAYCKMVLHGAKYPHCAVNGLLVAEKQKPRKEHLPLGGPGAHHTLFVDCIPLFHGTLALAPMLEVALTLIDSWCKDHSYVIAGYYQANERVKDASPNQVAEKVASRIAEGFSDTALIMVDNTKFTMDCVAPTIHVYEHHENRWRCRDPHHDYCEDWPEAQRISASLLDSRSYETLVDFDNHLDDIRNDWTNPEINKAVLHLC [EMC8]
Solution: 53.3

Problem: Please give the documented melting temperature of MARGGRGRRLGLALGLLLALVLAPRVLRAKPTVRKERVVRPDSELGERPPEDNQSFQYDHEAFLGKEDSKTFDQLTPDESKERLGKIVDRIDNDGDGFVTTEELKTWIKRVQKRYIFDNVAKVWKDYDRDKDDKISWEEYKQATYGYYLGNPAEFHDSSDHHTFKKMLPRDERRFKAADLNGDLTATREEFTAFLHPEEFEHMKEIVVLETLEDIDKNGDGFVDQDEYIADMFSHEENGPEPDWVLSEREQFNEFRDLNKDGKLDKDEIRHWILPQDYDHAQAEARHLVYESDKNKDEKLTKEEILENWNMFVGSQATNYGEDLTKNHDEL [RCN1]
Solution: 56.4

Problem: Please give the documented melting temperature of MTDYGEEQRNELEALESIYPDSFTVLSENPPSFTITVTSEAGENDETVQTTLKFTYSEKYPDEAPLYEIFSQENLEDNDVSDILKLLALQAEENLGMVMIFTLVTAVQEKLNEIVDQIKTRREEEKKQKEKEAEEAEKQLFHGTPVTIENFLNWKAKFDAELLEIKKKRMKEEEQAGKNKLSGKQLFETDHNLDTSDIQFLEDAGNNVEVDESLFQEMDDLELEDDEDDPDYNPADPESDSAD [RWDD1]
Solution: 54

Problem: Please give the documented melting temperature of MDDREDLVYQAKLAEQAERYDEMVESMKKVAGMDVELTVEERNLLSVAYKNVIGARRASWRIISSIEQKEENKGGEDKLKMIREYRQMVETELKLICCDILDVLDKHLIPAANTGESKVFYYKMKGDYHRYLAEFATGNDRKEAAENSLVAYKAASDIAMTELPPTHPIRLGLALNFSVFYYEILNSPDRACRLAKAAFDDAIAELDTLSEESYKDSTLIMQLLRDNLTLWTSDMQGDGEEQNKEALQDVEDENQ [YWHAE]
Solution: 55.8
